These entries and their values trace back to ChEMBL document CHEMBL3885861.

# Species on record: Rattus norvegicus
# method notes: Open TG-GATES - Regimen: Single
# Type: toxicity, organism-based, Sprague-Dawley
# Parameters: regimen Single, gender Male, age 6 weeks
# experimental parameters: in vivo, po, 0 mg/kg, 3 h, tissue Plasma, route gavage, dose level Control
Give RALB for every item shown.
Answers are plain numbers, in g/dL.

> print(dat)
                molecule  observed.measurement
1  CC(=O)Oc1ccccc1C(=O)O                   3.4

Parameters: items (list). Returns: RALB for each item.
1. CSc1ccc2c(c1)N(CCC1CCCCN1C)c1ccccc1S2 (stereo unspecified)
2. Cn1c(=O)c2[nH]cnc2n(C)c1=O.O
3. Clc1ccccc1CN1CCc2sccc2C1

*A*
3.8
3
3.3

Parameters: items (list). Returns: RALB for each item.
1. COc1ccc(Cc2nccc3cc(OC)c(OC)cc23)cc1OC
2. CCc1cc(C(N)=S)ccn1 [ETHIONAMIDE]

*A*
[3, 3.5]

---

Give KIDNEY_L for every item shown.
# Organism: Rattus norvegicus
# method notes: Open TG-GATES - Regimen: Daily Repeat
# Format: toxicity, organism-based, Sprague-Dawley
# Parameters: regimen Daily Repeat, gender Male, age 6 weeks
# experimental parameters: in vivo, po, 0 mg/kg, […], tissue Kidney, route gavage, dose level Control, time 7 day
Give bare numbers, in g.

Here is how some compounds turned out for KIDNEY_L.
> print(dat)
                                   compound  observed.measurement
1           CC(=O)Oc1ccccc1C(=O)O [ASPIRIN]                   1.2
2  Cn1c(=O)c2[nH]cnc2n(C)c1=O.O [THEOPHYLLINE]                   1.2
3    Clc1ccccc1CN1CCc2sccc2C1 [TICLOPIDINE]                   1.1
4  CSc1ccc2c(c1)N(CCC1CCCCN1C)c1ccccc1S2 (stereo not given) [THIORIDAZINE]                   1.2

*Q* So what's the measured KIDNEY_L for this one? O=C(O)c1cc(/N=N/c2ccc(S(=O)(=O)Nc3ccccn3)cc2)ccc1O [SULFASALAZINE]
*A* 1.1

---

# Species on record: Rattus norvegicus
# method notes: Open TG-GATES - Regimen: Single
# Assay type: toxicity, organism-based, Sprague-Dawley
# Design: regimen Single, gender Male, age 6 weeks
# experimental parameters: in vivo, po, 1000 mg/kg, 9 h, tissue Blood, route gavage, dose level High
Give MCHC for every item shown.
Answers are plain numbers, in %.

Parameters: items (list). Returns: MCHC for each item.
1. CCc1cc(C(N)=S)ccn1 [ETHIONAMIDE]
2. O=C(O)c1cc(/N=N/c2ccc(S(=O)(=O)Nc3ccccn3)cc2)ccc1O [SULFASALAZINE]
3. C[C@H](CS)C(=O)N1CCC[C@H]1C(=O)O [CAPTOPRIL]
4. O=C(O)c1cn(C2CC2)c2cc(N3CCNCC3)c(F)cc2c1=O [CIPROFLOXACIN]
5. Clc1ccccc1CN1CCc2sccc2C1 [TICLOPIDINE]

*A*
33.8
34.4
32.7
33
35.4

---

# Organism: Rattus norvegicus
# method notes: Open TG-GATES - Regimen: Single
# Type: toxicity, organism-based, Sprague-Dawley
# Design: regimen Single, gender Male, age 6 weeks
# experimental parameters: in vivo, po, 1000 mg/kg, 6 h, tissue Blood, route gavage, dose level High
Give Plat for every item shown.
Numbers only, in x10_4/uL.

Here is how some molecules turned out for Plat.
> print(dat)
                                   molecule  measured.quantity  observed.measurement
1          CCc1cc(C(N)=S)ccn1 [ETHIONAMIDE]               Plat                 118.7
2                  Clc1ccccc1CN1CCc2sccc2C1               Plat                 118.7
3  O=C(O)c1cc(/N=N/c2ccc(S(=O)(=O)Nc3ccccn3)cc2)ccc1O               Plat                 120.4

# input for lookup
*Q* So what's the measured Plat for this one? O=C(O)c1cn(C2CC2)c2cc(N3CCNCC3)c(F)cc2c1=O
*A* 100.8

---

# Species on record: Rattus norvegicus
# method notes: Open TG-GATES - Regimen: Single
# Type: toxicity, organism-based, Sprague-Dawley
# Design: regimen Single, gender Male, age 6 weeks
# experimental parameters: in vivo, po, 1000 mg/kg, 24 h, tissue Plasma, route gavage, dose level High
measured quantity: Na (meq/L)
One number for each entry, in meq/L.

Here is how some compounds turned out for Na.
> print(dat)
                                   compound  scale.unit  observed.measurement
1          CCc1cc(C(N)=S)ccn1 [ETHIONAMIDE]       meq/L                 140.8
2  O=C(O)c1cn(C2CC2)c2cc(N3CCNCC3)c(F)cc2c1=O [CIPROFLOXACIN]       meq/L                   140
3  O=C(O)c1cc(/N=N/c2ccc(S(=O)(=O)Nc3ccccn3)cc2)ccc1O [SULFASALAZINE]       meq/L                 139.6
4  C[C@H](CS)C(=O)N1CCC[C@H]1C(=O)O [CAPTOPRIL]       meq/L                 137.8

*Q* So what's the measured Na for this one? Clc1ccccc1CN1CCc2sccc2C1 [TICLOPIDINE]
*A* 142

---

Give ALP for every item shown.
# Species: Rattus norvegicus
# method notes: Open TG-GATES - Regimen: Daily Repeat
# Assay type: toxicity, organism-based, Sprague-Dawley
# Design: regimen Daily Repeat, gender Male, age 6 weeks
# experimental parameters: in vivo, po, 0 mg/kg, […], tissue Plasma, route gavage, dose level Control, time 28 day

Here is how some compounds turned out for ALP.
compound	observed measurement
Cn1c(=O)c2[nH]cnc2n(C)c1=O.O	1140.2 IU/L
CO[C@H]1/C=C/O[C@@]2(C)Oc3c(C)c(O)c4c(O)c(c(/C=N/N5CCN(C)CC5)c(O)c4c3C2=O)NC(=O)/C(C)=C\C=C\[C@H](C)[C@H](O)[C@@H](C)[C@@H](O)[C@@H](C)[C@H](OC(C)=O)[C@@H]1C	557.2 IU/L
NC(=O)N1c2ccccc2C=Cc2ccccc21 [CARBAMAZEPINE]	739.6 IU/L
COc1ccc2c(c1)c(CC(=O)O)c(C)n2C(=O)c1ccc(Cl)cc1	622.6 IU/L
O=C(O)c1cc(/N=N/c2ccc(S(=O)(=O)Nc3ccccn3)cc2)ccc1O	718.2 IU/L

Parameters: items (list). Returns: ALP for each item.
1. O=C(O)c1cn(C2CC2)c2cc(N3CCNCC3)c(F)cc2c1=O
2. CCc1cc(C(N)=S)ccn1 [ETHIONAMIDE]
3. NC(=O)N/N=C/c1ccc([N+](=O)[O-])o1
4. CN(C)CCC=C1c2ccccc2CCc2ccccc21

*A*
["566.6 IU/L", "523.4 IU/L", "1109.8 IU/L", "1151.8 IU/L"]

---

# Organism: Rattus norvegicus
# method notes: Open TG-GATES - Regimen: Single
# Type: toxicity, organism-based, Sprague-Dawley
# Parameters: regimen Single, gender Male, age 6 weeks
# experimental parameters: in vivo, po, 1000 mg/kg, 6 h, tissue Plasma, route gavage, dose level High
measured quantity: IP (mg/dL)
Give bare numbers, in mg/dL.

Here is how some compounds turned out for IP.
> print(dat)
                                   compound  measured.quantity  observed.measurement
1  O=C(O)c1cc(/N=N/c2ccc(S(=O)(=O)Nc3ccccn3)cc2)ccc1O [SULFASALAZINE]                 IP                   9.4
2    Clc1ccccc1CN1CCc2sccc2C1 [TICLOPIDINE]                 IP                   9.5
3  O=C(O)c1cn(C2CC2)c2cc(N3CCNCC3)c(F)cc2c1=O [CIPROFLOXACIN]                 IP                  10.8
4  C[C@H](CS)C(=O)N1CCC[C@H]1C(=O)O [CAPTOPRIL]                 IP                   9.8

*Q* So what's the measured IP for this one? CCc1cc(C(N)=S)ccn1 [ETHIONAMIDE]
*A* 9.4

---

# Organism: Rattus norvegicus
# method notes: Open TG-GATES - Regimen: Daily Repeat
# Format: toxicity, organism-based, Sprague-Dawley
# Set-up: regimen Daily Repeat, gender Male, age 6 weeks
# experimental parameters: in vivo, po, 0 mg/kg, […], tissue Plasma, route gavage, dose level Control, time 14 day
measured quantity: ALT (IU/L)
Give bare numbers, in IU/L.

Here is how some compounds turned out for ALT.
> print(dat)
                                   compound  observed.measurement
1         NC(=O)N/N=C/c1ccc([N+](=O)[O-])o1                  43.4
2     COc1ccc(Cc2nccc3cc(OC)c(OC)cc23)cc1OC                  42.2
3  O=C(O)c1cn(C2CC2)c2cc(N3CCNCC3)c(F)cc2c1=O                  31.4
4  CSc1ccc2c(c1)N(CCC1CCCCN1C)c1ccccc1S2 (stereo not given)                  33.4
5                     CC(=O)Oc1ccccc1C(=O)O                  33.4

Parameters: items (list). Returns: ALT for each item.
1. COc1ccc2c(c1)c(CC(=O)O)c(C)n2C(=O)c1ccc(Cl)cc1
2. C[C@H](CS)C(=O)N1CCC[C@H]1C(=O)O
3. O=C(O)c1cc(/N=N/c2ccc(S(=O)(=O)Nc3ccccn3)cc2)ccc1O
4. Clc1ccccc1CN1CCc2sccc2C1
5. CN(C)CCC=C1c2ccccc2CCc2ccccc21

*A*
[30.6, 32.6, 43.4, 33.6, 41.8]
